B1: Azoarcus group I ribozyme (parent)
chain: GUGCCUUGCGCCGGGAAACCACGCAAGGGAUGGUGUCAAAUUCGGCGAAACCUAAGCGCCCGCCCGGGCGUAUGGCAACGCCGAGCCAAGCUUCGGCGCCUGCGCCGAUGAAGGUGUAGAGACUAGACGGCACCCACCUAAGGCAAACGCUAUGGUGAAGGCAUAGUCCAGGGAGUGGCGAAAGUCACACAAACCGG

Variants of: B1
Assay: reverse-splicing fitness (ratio to wild type); higher = more active; in vitro selection; Mg2+ level not given
Reported Property: reverse-splicing fitness

INSERT INTO measurements (variant_descriptor, reported) VALUES
  ('C82A C169U U176A', 0.0166),
  ('C82U A111C A120C C150A C169A U176A', 0.0186),
  ('C82U A111C A120C A145C C150U C169U U176C', 0.0122),
  ('A111C A120U C150G C169G', 0.00853),
  ('A120G A145U C150G C169G U176G', 0.00487),
  ('C82A C150G U176C', 0.0393),
  ('A111C A120G A145G C150G C169G U176G', 0.00543),
  ('C82U A111C A120U A145U C150U', 0.0186),
  ('C82A A120C A145C C150G C169G U176A', 0.00969),
  ('C82U A120G A145U C150G C169G U176C', 0.00534),
  ('A111G C150U C169G', 0.0695),
  ('A111G A120G A145C C150U C169U', 0.0714),
  ('C82A A111G A120G A145U C150A U176G', 0.00563),
  ('C82A A111C A120G A145U C150A C169U U176C', 0.0127),
  ('C82G A111C A120C C150A C169G U176A', 0.0183),
  ('C82A A111C A120C A145C C150G C169G', 0.00631),
  ('C82U A111G A120U A145U C150A C169U U176G', 0.00158),
  ('C82G A111G A120G A145U C150G C169A U176C', 0.0133),
  ('C82U A120C A145C C150A C169G', 0.00551),
  ('C82G A111C A145G C150G C169A U176A', 0.0115),
  ('C82U A120G A145G C150A C169A U176A', 0.018),
  ('C82G A111G A120U A145C C150G C169G U176G', 0.00196),
  ('C82A A120U A145G C150U U176A', 0.0246),
  ('A120U A145G C150A C169A U176C', 0.00372),
  ('C82U A111G A120G A145U C150U C169U', 0.00963),
  ('C82G A111U A120G A145C C169U', 0.00836),
  ('C82A A111U A120C A145C C150G U176C', 0.00974),
  ('C82G A120U A145C C150U C169A U176C', 0.00192),
  ('A111C A120U A145C C150A C169U U176A', 0.00457),
  ('A111G A120C A145U C150G C169A U176A', 0.00723),
  ('C82A A111G A120U C150A C169A U176A', 0.00499),
  ('A111U A120C A145G C150G U176C', 0.0344),
  ('A120U A145U C150A C169A U176A', 0.0027),
  ('C82U A111C A120U A145G C150A C169A U176A', 0.00664),
  ('C82A A111C A120U C150G U176A', 0.00392),
  ('C82U A111G A120G A145C C169G U176A', 0.0238),
  ('A111C A145U U176C', 0.398),
  ('C82G A120C A145C C150A C169G U176A', 0.0302),
  ('C82U A120U C150U C169U U176G', 0.00209),
  ('A111U A145U C169U', 0.109),
  ('C82A A111G A145G C150U C169A U176G', 0.00696),
  ('C82A A111G A120C C150U', 0.0279),
  ('C82G A120U A145C C150G C169G U176C', 0.00209),
  ('A111U A120C A145C C150G C169G U176A', 0.00898),
  ('C82A A120U A145U C150U C169A U176G', 0.00171),
  ('C82G A120U A145G', 0.229),
  ('C82G A120U A145C C169A', 0.00201),
  ('C82A A111G A145G C150U C169U U176C', 0.0135),
  ('C82G A111G A120U A145C C150U C169U U176G', 0.00214),
  ('C82G A111U A120U A145C C169G U176G', 0.00158),
  ('C82G A111C A120G A145G C150A', 0.00945),
  ('C82U A111G A120C A145C C150U C169A U176C', 0.00487),
  ('A111G A120G A145U C150A C169U U176A', 0.0273),
  ('C82G A111U A120C C150U C169G', 0.00965),
  ('C82U A120C C150G C169U U176A', 0.00844),
  ('C82A A111U A120U A145C C150G C169A U176C', 0.00302),
  ('C82U A120U A145G C150A C169A U176G', 0.00241),
  ('C82U A120G A145G U176G', 0.00485),
  ('A111G A120U A145G C150U C169A U176A', 0.00469),
  ('A111U A120U A145G C150G C169U U176C', 0.00615),
  ('C82A A120U C150U', 0.0723),
  ('C82A A111U A120C A145C U176C', 0.0202),
  ('A111U A120G A145C C150U C169U U176A', 0.0278),
  ('C82A A111C C150G C169G U176C', 0.00508),
  ('A111C A120U A145U C150A C169U U176G', 0.00271),
  ('C82A A111C A120C A145U C150A C169G U176G', 0.00745),
  ('A111U A120C A145C C150A C169U U176G', 0.00524),
  ('C82U A111C A120G C169A U176A', 0.0141),
  ('C82U A111U', 0.327),
  ('C82G A111C A120G A145G C169A U176C', 0.0271),
  ('C82G A120G A145U C150A C169A', 0.00985),
  ('C82A A111C A120C C169U', 0.0124),
  ('C82G A111G A120G A145C C169A U176G', 0.00415),
  ('C82G A111C A120G C150U C169U', 0.00939),
  ('A111G A120C A145U U176G', 0.172),
  ('C82U A111C A120U A145G C150G C169U U176A', 0.0084),
  ('C82A A111C A120G C169U U176C', 0.0145),
  ('C82A A111C A120G A145C C150U C169A U176C', 0.00619),
  ('C82G A111C A120C C150G C169U U176C', 0.0107),
  ('C82U A111G A120U A145U C150A C169G', 0.00226),
  ('C82G A120U A145G C150G C169U', 0.00739),
  ('A111C C150U C169G U176C', 0.0234),
  ('C82A A111U C150A C169G U176A', 0.0202),
  ('C82G A120C A145G C150G', 0.0242),
  ('C82G A111U A120G C150G U176C', 0.0117),
  ('C82U A111G A120G A145C C150U', 0.00813),
  ('C82A A111G A120C C150A C169G U176G', 0.00675),
  ('A111U A120C C150A U176A', 0.0374),
  ('C82G A111C A120U A145G C150G U176A', 0.00628),
  ('C82U A120U A145C C150A C169A U176G', 0.00165),
  ('C82G A120C A145G C169U U176A', 0.017);

These measurements were taken from the RNAGym collection of RNA variant scans (doi:10.1093/molbev/msab373).
